Data credit: the OligoGym collection

Biological target: Tau
Assay: rat primary cortical neurons, FLIPR, 25 uM ASO
Bases are written 5' to 3'; sugars and linkages follow in the same order, as letters with counts (s phosphorothioate, o phosphodiester; PS: all linkages phosphorothioate). The collection does not say whether C is 5-methylated. l = locked nucleic acid (LNA); d = 2'-deoxy (DNA)
Recorded calcium oscillation score, one value per entry.

Study these solved cases before continuing.
ORDERED RESIDUES: CCTTAATTTCACCCTC (sugars l3 d10 l3, PS)
calcium oscillation score: 132 % of control

ORDERED RESIDUES: TCCACAAACCAACTCAAC (sugars l4 d12 l2, PS)
calcium oscillation score: 95.9 % of control

ORDERED RESIDUES: CACCTTTTTCCATCTTACTA (sugars l2 d16 l2, PS)
calcium oscillation score: 67.5 % of control

ORDERED RESIDUES: ACTAGCCCACCCATCAATTT (sugars l3 d14 l3, PS)
calcium oscillation score: 12.9 % of control

ORDERED RESIDUES: GCCCACCCATCAATTTGGAA (sugars l3 d14 l3, PS)
calcium oscillation score: 1.3 % of control

Request the reported calcium oscillation score associated with TGGCGTTCTCGCGG (sugars l3 d8 l3, PS)
93.9 % of control

###

Molecular target: Tau
Experiment: rat primary cortical neurons, FLIPR, 25 uM ASO
Bases are written 5' to 3'; sugars and linkages follow in the same order, as letters with counts (s phosphorothioate, o phosphodiester; PS: all linkages phosphorothioate). The collection does not say whether C is 5-methylated. l = locked nucleic acid (LNA); d = 2'-deoxy (DNA)
PARAMETER: calcium oscillation score

Study these solved cases before continuing.
ORDERED RESIDUES: CCCGTGGTCTGTCT (sugars l3 d8 l3, PS)
SYSTEM NAME: Tau
calcium oscillation score: 89.8 % of control
//
ORDERED RESIDUES: GCATGCAGTTTATTCCTGGC (sugars l3 d14 l3, PS)
SYSTEM NAME: Tau
calcium oscillation score: 4.03 % of control
//
ORDERED RESIDUES: TTCTTGTGATGCAGGA (sugars l3 d10 l3, PS)
SYSTEM NAME: Tau
calcium oscillation score: 61.3 % of control
//
ORDERED RESIDUES: TGGATATAGTTAAGGC (sugars l4 d8 l4, PS)
SYSTEM NAME: Tau
calcium oscillation score: 117 % of control
//
ORDERED RESIDUES: CATCGCTTCCAGTCCC (sugars l3 d10 l3, PS)
SYSTEM NAME: Tau
calcium oscillation score: 39.1 % of control
//
ORDERED RESIDUES: GAGGAACGTGTGGATG (sugars l3 d10 l3, PS)
SYSTEM NAME: Tau
calcium oscillation score: 3.7 % of control
//
ORDERED RESIDUES: GAGAACTGGTTAGCCC (sugars l3 d10 l3, PS)
SYSTEM NAME: Tau
calcium oscillation score: 2.3 % of control
//
ORDERED RESIDUES: TCCTAAGTCAACCACACC (sugars l2 d14 l2, PS)
SYSTEM NAME: Tau
calcium oscillation score: 69 % of control
//
ORDERED RESIDUES: TGTAGACTATTTGC (sugars l3 d8 l3, PS)
SYSTEM NAME: Tau
calcium oscillation score: 30.9 % of control
//
ORDERED RESIDUES: ATATTTAGTTTTCCCAC (sugars l2 d11 l4, PS)
SYSTEM NAME: Tau
calcium oscillation score: 42.4 % of control

Record lookup: for Tau, what calcium oscillation score belongs to GAGCACTAACTCTAAGTAGA (sugars l3 d14 l3, PS) ?
23.8 % of control

Record lookup: for Tau, what calcium oscillation score belongs to ACCACATTATCATCCATT (sugars l2 d12 l4, PS) ?
55.7 % of control

Record lookup: for Tau, what calcium oscillation score belongs to AACATCACCAGCCTTC (sugars l3 d9 l4, PS) ?
50.7 % of control

Record lookup: for Tau, what calcium oscillation score belongs to CTACACCACTGTTCCATA (sugars l1 d15 l2, PS) ?
62 % of control

Record lookup: for Tau, what calcium oscillation score belongs to CCAATTGTCACATTAA (sugars l4 d8 l4, PS) ?
63.1 % of control

Record lookup: for Tau, what calcium oscillation score belongs to CCACCCATCAATTTGGAAAG (sugars l3 d14 l3, PS) ?
58.1 % of control

Record lookup: for Tau, what calcium oscillation score belongs to CTCCAATTTTAAACTTA (sugars l4 d9 l4, PS) ?
66.5 % of control

Record lookup: for Tau, what calcium oscillation score belongs to CAACTGGTTTGTAGAC (sugars l3 d10 l3, PS) ?
42.9 % of control

Record lookup: for Tau, what calcium oscillation score belongs to CCCCATTTATCCTTCATG (sugars l2 d14 l2, PS) ?
49.4 % of control

Record lookup: for Tau, what calcium oscillation score belongs to GGCGAGTCTACCATGT (sugars l3 d10 l3, PS) ?
43.4 % of control

Record lookup: for Tau, what calcium oscillation score belongs to CCCAATCTTCGACTGGACTC (sugars l3 d14 l3, PS) ?
31.6 % of control

Record lookup: for Tau, what calcium oscillation score belongs to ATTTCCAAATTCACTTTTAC (sugars lllddldddddddddldlll, PS) ?
125 % of control

Record lookup: for Tau, what calcium oscillation score belongs to CACTTTCCTAATTCCCAAAT (sugars l2 d16 l2, PS) ?
62.1 % of control

Record lookup: for Tau, what calcium oscillation score belongs to TTCCTGGCCATCTTATGCTG (sugars l3 d14 l3, PS) ?
22 % of control

Record lookup: for Tau, what calcium oscillation score belongs to AATTTCTCTAATTGTCC (sugars l4 d9 l4, PS) ?
69 % of control

Record lookup: for Tau, what calcium oscillation score belongs to TACCAATTATCTTTAAATTC (sugars l4 d12 l4, PS) ?
64.4 % of control

Record lookup: for Tau, what calcium oscillation score belongs to CCCGAGCCAAAGCCGA (sugars l3 d10 l3, PS) ?
50.6 % of control
